Test system: Yap1 mRNA
protocol summary: Dose-dependent inhibition of human Yap1 in A-431 cells (Example 8, 10,000 cells per well, RTS4814)
Type: cell-based
condition details: A-431 cells, free uptake, approximately 48 hours, RTS4814; linear regression on log/linear plot
Strand notation (5' to 3'): a small letter for the sugar, then the base; units joined by * are phosphorothioate-linked, units joined directly phosphodiester-linked; [ ] holds rarer units or linkages, { } end groups; capitals alone tell only the bases. k = constrained ethyl (cEt); [5mC] = 5-methylcytosine; d = 2'-deoxy (DNA)
Recorded IC50 by entry

Before answering, review these 3 worked examples.
{"columns": ["substance", "parameter measured", "observed result"],
 "data": [
  ["1074593 (DNA kA*kG*kG*dA*dG*d[5mC]*dA*dA*dG*dT*d[5mC]*dT*dT*kG*kT*kA) [compound 1074593]", "IC50", "< 20 nM"],
  ["1074610 (DNA kT*k[5mC]*kT*dA*dG*dT*dT*dA*d[5mC]*dA*dT*d[5mC]*dA*kT*k[5mC]*kT) [compound 1074610]", "IC50", "< 20 nM"],
  ["1074479 (k[5mC]*kA*kT*dT*dT*dG*d[5mC]*d[5mC]*dT*dA*dG*dG*dT*kT*k[5mC]*k[5mC]; antisense) [compound 1074479]", "IC50", "< 20 nM"]
]}

// 1075699 (kG*kA*kT*dT*dT*dA*dT*dA*d[5mC]*dT*d[5mC]*dA*dG*kG*kT*kT; antisense) [compound 1075699] : IC50 value = < 20 nM

According to the records, this substance 1074274 (antisense kG*kT*kT*d[5mC]*dT*dT*dA*dT*dG*dG*dT*dT*dT*kA*kT*kA) [compound 1074274] displays IC50 of < 20 nM
